Every entry's value here was drawn from patent US11434205B2.

# Tested on: secretion of cortisol, H295R cell line
# method.summary: cells
# Format: cell-based
# cond: H295R; Table A3
Cortisol as an indicator to determine the presence of inhibition values, listed per item
measurement.label: Cortisol as an indicator to determine the presence of inhibition

• C[C@H](c1ccccc1)n1cncc1C(=O)OCC1(C(F)F)CCC1 [Compound A19] = 0
• CSCC1(CSC(=O)c2cncn2[C@H](C)c2ccccc2)CCC1 [Compound A46] = 0
• COC(=O)C1(OC(=O)c2cncn2[C@H](C)c2ccccc2)CC1 [CPMM, cyclopropyl methoxycarbonyl methylate, reference compound] = 1

###

# Tested on: rats
# method.summary: Pharmacological characteristics at equivalent doses (2×ED50) in rats
# cond: 2×ED50, tail vein, time of LORR
Onset time values, listed per item
measurement.label: Onset time (min)

• C#CC1(COC(=O)c2cncn2[C@H](C)c2ccccc2)CCC1 = 0.14
• C#CC(C)OC(=O)c1cncn1[C@H](C)c1ccccc1 (stereo partly drawn) = 0.24
• CC(=O)C1(OC(=O)c2cncn2[C@H](C)c2ccccc2)COC1 = 0.36

###

# Test system: rats
# Type: in vivo, rat
# cond: rats of the MAP/HR figures, 2×ED50, tail vein; same value in min
recovery time of the test animals' righting reflex values, listed per item
measurement.label: recovery time of the test animals' righting reflex (min)

• C[C@H](c1ccccc1)n1cncc1C(=O)OCC1(C)COC1 = 4.25
• CCOC(=O)c1c(Cl)nc(Cl)n1[C@H](C)c1ccccc1 = 0.87
• CC(=O)C1(OC(=O)c2cncn2[C@H](C)c2ccccc2)CCC1 = 3.03
• COCC1(COC(=O)c2cncn2[C@H](C)c2ccccc2)CCC1 = 3.75
• C[C@H](c1ccccc1)n1cnc(F)c1C(=O)OC1CCC1 = 1.28

###

# Test system: rats
# method.summary: Pharmacological characteristics at equivalent doses (2×ED50) in rats
# cond: 2×ED50, tail vein, DMSO solution (DMSO alone 10/10)
measurement.label: Adverse reactions: Red urine (incidence)

- CCC(C)(C)OC(=O)c1cncn1[C@H](C)c1ccccc1: Red urine (8/8)
- CC#CC(C)(C)OC(=O)c1c(F)ncn1[C@H](C)c1ccccc1: (8/8)
- C=CC#CC(C)(C)OC(=O)c1c(F)ncn1[C@H](C)c1ccccc1: (8/8)
- CCC(C)(C)OC(=O)c1c(F)ncn1[C@H](C)c1ccccc1: (8/8)
- CC#CC(C)OC(=O)c1cncn1[C@H](C)c1ccccc1 (stereo partly drawn): Red urine (8/8)
- CCOC(=O)c1c(Cl)nc(Cl)n1[C@H](C)c1ccccc1: urine (8/8)
- CSCCSC(=O)c1cncn1[C@H](C)c1ccccc1: Red urine (8/8)
- C#CC1(COC(=O)c2cncn2[C@H](C)c2ccccc2)CCC1: (8/8)
- C=CC(C)(C)OC(=O)c1c(F)ncn1[C@H](C)c1ccccc1: urine (8/8)
